Assay: Retardation factor of the compound in cyclohexylamine-water-methyl ethyl ketone-1-butanol at 1:2.5:5:5 ratio by paper chromatography
Type: physicochemical
Details: buffer
readout-name: Rf
Number only, please.

Rf in this record for N[C@@]1(C(=O)O)CCC[C@H]1O (relative stereo) : 0.45

Continuing:
Lab book: Rf of N[C@@]1(C(=O)O)CCC[C@@H]1O (relative stereo) noted as 0.38

Sample C[C@H](O)[C@H](N)C(=O)O ; Rf observed: 0.41

Rf recorded for this compound, C[C@@H](O)[C@H](N)C(=O)O , is 0.54
